tested on: SYO-1; test: standardised AUC of viability dose-response curve (72 h) (fraction (0-1)); higher = less growth inhibition (more resistant)
quantity: standardised AUC
Hey, just send me the number, nothing else.

Recorded results for 8 compounds are shown here.
compound: C1=N/C2=N/c3ccc(OCCN4CCCC4)c(c3)COC/C=C/COCc3cccc(c3)C(=C1)N2 [PACRITINIB]
tgt: SYO-1
numeric_value: 0.747

compound: CO[C@H]1C[C@@H]2CC[C@@H](C)[C@@](O)(O2)C(=O)C(=O)N2CCCC[C@H]2C(=O)O[C@H]([C@H](C)C[C@@H]2CC[C@@H](O)[C@H](OC)C2)CC(=O)[C@H](C)/C=C(\C)[C@@H](O)[C@@H](OC)C(=O)[C@H](C)C[C@H](C)/C=C/C=C/C=C/1C [RAPAMYCIN]
tgt: SYO-1
numeric_value: 0.846

compound: CCCS(=O)(=O)N[C@H]1C[C@@H](N(C)c2ncnc3[nH]ccc23)C1 [ABROCITINIB]
tgt: SYO-1
numeric_value: 1

compound: COc1cc(Nc2c(C#N)cnc3cc(OCCCN4CCN(C)CC4)c(OC)cc23)c(Cl)cc1Cl [BOSUTINIB]
tgt: SYO-1
numeric_value: 0.909

compound: C[C@@H](Oc1cc(-c2cnn(C3CCNCC3)c2)cnc1N)c1c(Cl)ccc(F)c1Cl [CRIZOTINIB]
tgt: SYO-1
numeric_value: 0.745

compound: COc1cc(OC)cc(N(CCNC(C)C)c2ccc3ncc(-c4cnn(C)c4)nc3c2)c1 [ERDAFITINIB]
tgt: SYO-1
numeric_value: 0.581

compound: COc1cc2ncnc(Nc3cccc(Cl)c3F)c2cc1OC(=O)N1CCN(C)C[C@H]1C [AZD-3759]
tgt: SYO-1
numeric_value: 0.91

compound: Cc1cn(-c2cc(NC(=O)c3ccc(C)c(Nc4nccc(-c5cccnc5)n4)c3)cc(C(F)(F)F)c2)cn1 [NILOTINIB]
tgt: SYO-1
numeric_value: 0.843

Task item: Look at this compound and give its reported standardised AUC. CCN(c1cc(-c2ccc(CN3CCOCC3)cc2)cc(C(=O)NCc2c(C)cc(C)[nH]c2=O)c1C)C1CCOCC1 [TAZEMETOSTAT]
Reply: 0.971

Task item: Next record, please: CNC(=O)c1cc(Oc2ccc(NC(=O)Nc3ccc(Cl)c(C(F)(F)F)c3)cc2)ccn1 [SORAFENIB]
Reply: 0.841

Task item: Next compound up: COc1cc2nccc(Oc3ccc(NC(=O)NC4CC4)c(Cl)c3)c2cc1C(N)=O [LENVATINIB]
Reply: 0.701

Task item: Again, but for COc1cc2c(Oc3ccc4[nH]c(C)cc4c3F)ccnc2cc1OCC1(N)CC1 [ANLOTINIB]
Reply: 0.736

Task item: Please answer likewise for CN(C)C[C@@H]1CCn2cc(c3ccccc32)C2=C(C(=O)NC2=O)c2cn(c3ccccc23)CCO1 [RUBOXISTAURIN]
Reply: 0.861

* * *

system: VA-ES-BJ; assay: relative viability vs DMSO control (72 h) (fraction); higher = more viable cells; conditions: 0.3704 µM
quantity: relative viability
Response field accepts a number only; no unit should be typed.

Consider the following illustrative entries.
compound: COc1cc2c(Oc3ccc4[nH]c(C)cc4c3F)ccnc2cc1OCC1(N)CC1 [Anlotinib]
numeric_value: 1.02
//
compound: C#Cc1cccc(Nc2ncnc3cc(OCCOC)c(OCCOC)cc23)c1 [Erlotinib]
numeric_value: 1.03
//
compound: Cc1cn(-c2cc(NC(=O)c3ccc(C)c(Nc4nccc(-c5cnccn5)n4)c3)cc(C(F)(F)F)c2)cn1 [Radotinib]
numeric_value: 1.17

Now consider a different compound.
Task item: Given the entry Cc1cccc(-c2[nH]c(CNc3ccccc3F)nc2-c2ccc3ncnn3c2)n1 [Vactosertib] , what relative viability was observed with VA-ES-BJ?
Reply: 1.08

* * *

tested on: RD-ES; assay: relative viability vs DMSO control (72 h) (fraction); higher = more viable cells; conditions: 0.00017 µM
# relative viability per entry
Lab note: jot the number down without any unit.

Observe how each entry below is paired with its result.
molecule: COc1cc2c(Oc3ccc4[nH]c(C)cc4c3F)ccnc2cc1OCC1(N)CC1 [Anlotinib]
relative viability: 0.923
//
molecule: NC(=O)c1cccc2cn(-c3ccc([C@@H]4CCCNC4)cc3)nc12 [Niraparib]
relative viability: 0.997

// below: relative viability requested for another molecule
Task item: Which measured relative viability value corresponds to Cc1ccc(C(=O)OCc2ccc([C@@H](CN)C(=O)Nc3ccc4cnccc4c3)cc2)c(C)c1 [Netarsudil] ?
Reply: 0.995

* * *

system: SW1353; test: relative viability vs DMSO control (72 h) (fraction); higher = more viable cells; settings: 10 µM
quantity: relative viability

Please review the entries below; each comes with its answer.
compound: C1=N/C2=N/c3ccc(OCCN4CCCC4)c(c3)COC/C=C/COCc3cccc(c3)C(=C1)N2 [Pacritinib]
result: 0.0164
--
compound: COc1cc(OC)cc(N(CCNC(C)C)c2ccc3ncc(-c4cnn(C)c4)nc3c2)c1 [Erdafitinib]
result: 0.0859
--
compound: C=CC(=O)Nc1cccc(Nc2nc(Nc3ccc(N4CCN(C(C)=O)CC4)cc3OC)ncc2C(F)(F)F)c1 [Rociletinib]
result: 0.338
--
compound: NC(=O)c1cccc2cn(-c3ccc([C@@H]4CCCNC4)cc3)nc12 [Niraparib]
result: 0.904
--
compound: COc1cc2nccc(Oc3ccc(NC(=O)NC4CC4)c(Cl)c3)c2cc1C(N)=O [Lenvatinib]
result: 0.817
--
compound: COc1cc2c(Oc3ccc4[nH]c(C)cc4c3F)ccnc2cc1OCC1(N)CC1 [Anlotinib]
result: 0.254
--
compound: COc1cc2ncnc(Nc3cccc(Cl)c3F)c2cc1OC(=O)N1CCN(C)C[C@H]1C [AZD-3759]
result: 0.769
--
compound: Cc1cn(-c2cc(NC(=O)c3ccc(C)c(Nc4nccc(-c5cccnc5)n4)c3)cc(C(F)(F)F)c2)cn1 [Nilotinib]
result: 0.846
--
compound: Cc1cn(-c2cc(NC(=O)c3ccc(C)c(Nc4nccc(-c5cnccn5)n4)c3)cc(C(F)(F)F)c2)cn1 [Radotinib]
result: 1.17
--
compound: COc1cc2nccc(Oc3ccc(NC(=O)C4(C(=O)Nc5ccc(F)cc5)CC4)cc3)c2cc1OC [Cabozantinib]
result: 0.317

Task item: Please provide the recorded relative viability for C#Cc1cccc(Nc2ncnc3cc(OCCOC)c(OCCOC)cc23)c1 [Erlotinib] , tested on SW1353.
Reply: 0.695

Task item: What about CCCCCCCCCCCCCCCCCCOP(=O)([O-])OC1CC[N+](C)(C)CC1 [Perifosine] ?
Reply: 1.06

* * *

# reported relative viability; entries follow
test system: KHOS-240S; experiment: relative viability vs DMSO control (72 h) (fraction); higher = more viable cells; details: 10 µM

// worked examples, relative viability included
structure_string: CC[C@@H]1C(=O)N(C)c2cnc(Nc3ccc(C(=O)N[C@H]4CC[C@H](N5CCN(CC6CC6)CC5)CC4)cc3OC)nc2N1C(C)C
quantity: relative viability
result: 0.0197
--
structure_string: FC(F)(F)c1ccc(CNc2ccc(Cc3c[nH]c4ncc(Cl)cc34)cn2)cn1
quantity: relative viability
result: 0.913
--
structure_string: CCCCCCCCCCCCCCCCCCOP(=O)([O-])OC1CC[N+](C)(C)CC1
quantity: relative viability
result: 0.818
--
structure_string: C[C@H]1Oc2cc(cnc2N)-c2c(nn(C)c2C#N)CN(C)C(=O)c2ccc(F)cc21
quantity: relative viability
result: 0.865

Task item: Request the reported relative viability associated with C1=N/C2=N/c3ccc(OCCN4CCCC4)c(c3)COC/C=C/COCc3cccc(c3)C(=C1)N2
Reply: 0.108

Task item: Could you do the same for C=CC(=O)Nc1cc(Nc2nccc(-c3cn(C)c4ccccc34)n2)c(OC)cc1N(C)CCN(C)C , please?
Reply: 0.167

Task item: Follow-up entry: COc1cc2ncnc(Nc3cccc(Cl)c3F)c2cc1OC(=O)N1CCN(C)C[C@H]1C
Reply: 0.878

Task item: Same thing, different compound: CN(C)C[C@@H]1CCn2cc(c3ccccc32)C2=C(C(=O)NC2=O)c2cn(c3ccccc23)CCO1
Reply: 0.715

* * *

test system: G401; assay: relative viability vs DMSO control (72 h) (fraction); higher = more viable cells; settings: 0.3704 µM
quantity: relative viability
The answer should be a number; do not append a unit.

structure_string: COc1cc(OC)cc(N(CCNC(C)C)c2ccc3ncc(-c4cnn(C)c4)nc3c2)c1
relative viability: 0.472
//
structure_string: C[C@@H]1COC(Nc2ccc3ncnc(Nc4ccc(OCc5nccs5)c(Cl)c4)c3c2)=N1
relative viability: 0.939
//
structure_string: N#CCC1(n2cc(-c3ncnc4[nH]ccc34)cn2)CN(C2CCN(C(=O)c3ccnc(C(F)(F)F)c3F)CC2)C1
relative viability: 0.953
//
structure_string: Cc1ccc(NC(=O)c2ccc(CN3CCN(C)CC3)cc2)cc1Nc1nccc(-c2cccnc2)n1
relative viability: 0.946
//
structure_string: COc1cc2nccc(Oc3ccc(NC(=O)NC4CC4)c(Cl)c3)c2cc1C(N)=O
relative viability: 0.848
//
structure_string: FC(F)(F)c1ccc(CNc2ccc(Cc3c[nH]c4ncc(Cl)cc34)cn2)cn1
relative viability: 0.996
//
structure_string: Cc1cn(-c2cc(NC(=O)c3ccc(C)c(Nc4nccc(-c5cnccn5)n4)c3)cc(C(F)(F)F)c2)cn1
relative viability: 1.08
//
structure_string: Cc1cn(-c2cc(NC(=O)c3ccc(C)c(Nc4nccc(-c5cccnc5)n4)c3)cc(C(F)(F)F)c2)cn1
relative viability: 0.923

// moving on: another record for relative viability
Task item: Quick one: relative viability for C1=N/C2=N/c3ccc(OCCN4CCCC4)c(c3)COC/C=C/COCc3cccc(c3)C(=C1)N2 ?
Reply: 0.868
